- Read-out: Apolipoprotein A-V (APOA5) gene, APOA5 (gene 116519)
- TEST_PROTOCOL: LTEA_HepaRG_APOA5: Life Technologies and Expression Analysis (LTEA) Assay for Apolipoprotein A-V (APOA5) gene using HepaRG (AID 2283474)
- CONDITION_PARAMETERS: mRNA level, 48 h; actives raise or lower the signal
Calls of active or inactive are those of the source. How the source made its calls: active means hit-call score of the fitted dose curve at least 0.9, where 1 is the maximum; inactive means score below 0.9.
The reply should be one of these categories: label 1 (active), label 0 (inactive)

Field: example entries. Status: answers known.
c1cc2ccc3cccc4ccc(c1)c2c34 :: label 0
CC(C)C(=O)OCC(C)(C)C(OC(=O)C(C)C)C(C)C (stereo unspecified) :: label 0
Oc1c(Cl)c(Cl)c(Cl)c(Cl)c1Cl :: label 1

Call for entry C[C@]12CCC(=O)C=C1CC[C@@H]1[C@@H]2CC[C@]2(C)C(=O)CC[C@@H]12 :
label 1

Now the compound Cc1ccccc1CO[C@@H]1C[C@@]2(C(C)C)CC[C@]1(C)O2
label 0

Now the compound C=CC(=O)NCNC(=O)C=C
label 0

====

- SUBJECT_OF_TEST: bovine Estrogen Receptor (ER), ESR1 (gene 407238) (UniProt P49884)
- Sequence (P49884 whole entry, looked up): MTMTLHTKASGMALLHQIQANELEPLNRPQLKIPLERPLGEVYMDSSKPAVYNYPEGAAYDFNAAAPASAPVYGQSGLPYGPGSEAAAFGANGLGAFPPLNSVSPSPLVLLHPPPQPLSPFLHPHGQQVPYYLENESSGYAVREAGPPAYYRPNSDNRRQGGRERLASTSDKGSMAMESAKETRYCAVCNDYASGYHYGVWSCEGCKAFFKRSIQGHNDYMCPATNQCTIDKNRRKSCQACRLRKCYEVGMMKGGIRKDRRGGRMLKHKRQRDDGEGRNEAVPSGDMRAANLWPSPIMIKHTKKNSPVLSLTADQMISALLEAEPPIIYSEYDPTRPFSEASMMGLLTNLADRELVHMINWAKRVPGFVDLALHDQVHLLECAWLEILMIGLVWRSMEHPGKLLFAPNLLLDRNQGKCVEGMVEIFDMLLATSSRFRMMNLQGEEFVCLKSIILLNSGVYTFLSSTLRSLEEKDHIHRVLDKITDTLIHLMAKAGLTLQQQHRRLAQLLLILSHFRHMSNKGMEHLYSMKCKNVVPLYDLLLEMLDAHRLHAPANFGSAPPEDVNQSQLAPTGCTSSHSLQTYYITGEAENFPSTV
- TEST_PROTOCOL: NVS_NR_bER: NovaScreen (NVS) Nuclear Receptor Binding Assay for bovine Estrogen Receptor (ER) (AID 2283345);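 further: actives lower the bound radioligand count which means they displace the ER ligand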
Records with an inconclusive call do not appear. Calls of active or inactive are those of the source. How the source made its calls: active means hit-call score of the fitted dose curve at least 0.9, where 1 is the maximum; inconclusive means response in the unintended direction; inactive means score below 0.9.
The reply should be one of these categories: active, inactive

Field: example entries. Status: answers known.
Oc1c(Cl)c(Cl)c(Cl)c(Cl)c1Cl :: inactive
C[C@]12CCC(=O)C=C1CC[C@@H]1[C@@H]2CC[C@]2(C)C(=O)CC[C@@H]12 :: active
CC(c1ccc(O)cc1)(c1ccc(O)cc1)c1ccc(O)cc1 :: active
Oc1ccc(Cl)cc1Cl :: inactive

// next entry
Call for entry CCCCCCCCCC[N+](C)(C)CCCCCCCCCC :
inactive

====

- TEST_PROTOCOL: APR_HepG2_p53Act_72hr: Apredica 72-hour HepG2 Assay for p53 Activation (AID 2282923);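 further: average cellular p53 protein immunofluorescence intensity in HepG2 cells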
- CONDITION_PARAMETERS: high-content imaging, actives raise or lower the signal
Calls of active or inactive are those of the source. Rule for the calls: active = hit-call score of the fitted dose curve at least 0.9, where 1 is the maximum; inactive = score below 0.9.
The reply should be one of these categories: active, inactive

Call for entry Cc1ccc(O)c(C)c1 :
inactive

Now the compound CCCN(CCC)N=O
inactive

Now the compound Nc1ccc(-c2ccc(N)cc2)cc1
active

Now the compound C[C@]12CCC(=O)C=C1CC[C@@H]1[C@@H]2CC[C@@]2(C)[C@H]1CC[C@]2(C)O
inactive

Now the compound CCCCCCOC(=O)c1ccccc1C(=O)OCCCCCC
inactive

Now the compound ClC1=C(Cl)[C@]2(Cl)[C@@H]3[C@@H](Cl)[C@H]4O[C@H]4[C@@H]3C1(Cl)C2(Cl)Cl
active

Now the compound O=C(NC(=O)c1c(F)cccc1F)Nc1cc(Cl)c(OC(F)(F)C(F)F)c(Cl)c1
active

Now the compound c1cc2ccc3cccc4ccc(c1)c2c34
inactive

Now the compound Oc1ccc(C(c2ccc(O)cc2)(C(F)(F)F)C(F)(F)F)cc1
inactive

Now the compound C1CC2OC2CC1C1CO1 (stereo unspecified)
inactive

Now the compound C[C@]12CCC(=O)C=C1CC[C@@H]1[C@@H]2CC[C@]2(C)C(=O)CC[C@@H]12
inactive

Now the compound CCOP(=S)(OCC)SCSC(C)(C)C
inactive

Now the compound O=S(=O)(O)C(F)(F)C(F)(F)C(F)(F)C(F)(F)F
inactive

Now the compound CCCCCCCCOC(=O)c1ccccc1C(=O)OCCCCCCCC
inactive

Now the compound Nn1cnnc1
inactive

Now the compound C=CC(=O)NCNC(=O)C=C
inactive

Now the compound ClC1=C(Cl)[C@]2(Cl)[C@@H]3[C@@H]4C[C@@H]([C@H]5O[C@@H]45)[C@@H]3[C@@]1(Cl)C2(Cl)Cl
inactive

Now the compound CC1=C2C[C@H]3[C@@H](CC=C4C[C@@H](O)CC[C@@]43C)[C@@H]2CC[C@]12O[C@@H]1C[C@H](C)CN[C@H]1[C@H]2C
inactive
